Assay: chemical genetic growth profiling, strain panel (AID 1159580);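 further: tested at 20 µM; growth read once vehicle control cultures reached saturation at 30 °C; 1 = growth at the plate median or of vehicle wells; lower values mean less growth of the strain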
Conditions: S. cerevisiae deletion strains, growth OD, locus YPR135W, strain CTF4, stronger effect = lower value
Among all 5,500 compounds or so, about 2,000 (36%) were called active. Another 18% or so got no clear call; they are omitted. Some of the results follow.
Label true when normalized growth is strictly below 1; otherwise label false.

INSERT INTO measurements (smilesrepresentation, labelvalue) VALUES
  ('FC(F)(F)c1ccc(-c2nc(-c3ccc4c(c3)OCCCO4)cs2)cc1', 'false'),
  ('N#Cc1ccc([N+](=O)[O-])s1', 'true'),
  ('CCN1CN=C(SCc2ccc(C)cc2)NC1', 'true');

---

Assay: chemical genetic growth profiling, strain panel (AID 1159580)
Conditions: S. cerevisiae deletion strains, growth OD, locus YGL173C, strain kem1, stronger effect = lower value
The campaign covered roughly 5,500 compounds. About 2,000 (36%) were called active. Not shown: some 18% with an inconclusive outcome. The list shows a part of the results.
recordedMetric: normalized growth

INSERT INTO results (compound, experimentalresult) VALUES
  ('CC(=O)O.CC(=O)O.[Cd]', '0.68 (active)'),
  ('NCCc1ccc(O)cc1', '0.964 (inactive)'),
  ('CCCCCCCCCc1ccc(O)cc1', '0.0956 (active)'),
  ('COc1ccc(C(=O)/C=C/c2ccccc2)cc1', '0.889 (active)'),
  ('CCOC(=O)C1C(C=C(C)C)C1(C)C (configuration not stated)', '1 (inactive)'),
  ('COc1cc([C@@H]2c3cc4c(cc3[C@H](OC(C)=O)[C@H]3COC(=O)[C@H]23)OCO4)cc(OC)c1OC', '1.01 (inactive)'),
  ('CC1(C)O[C@@H]2CC3C4CCC5=CC(=O)C=C[C@]5(C)[C@@]4(F)[C@@H](O)C[C@]3(C)[C@]2(C(=O)CO)O1 (some centres not stated)', '0.98 (inactive)');

---

Test: chemical genetic growth profiling, strain panel (AID 1159580);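 further: tested at 20 µM; growth read once vehicle control cultures reached saturation at 30 °C; 1 = growth at the plate median or of vehicle wells; lower values mean less growth of the strain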
Settings: S. cerevisiae deletion strains, growth OD, locus YER123W, strain YCK3, stronger effect = lower value
The campaign covered roughly 5,500 compounds. About 2,000 (36%) were called active. Not shown: some 18% with an inconclusive outcome. Some of the results follow.
Entries and their normalized growth values follow.
recordedMetric: normalized growth

INSERT INTO results (compound, recordedmetric, experimentalresult) VALUES
  ('Clc1ccc(-c2csc(Nc3ccccc3)n2)s1', 'normalized growth', 0.354),
  ('O=C(NNC(=O)c1csc(-c2cccs2)n1)c1ccc(C(F)(F)F)cc1', 'normalized growth', 0.75),
  ('O=C1c2ccccc2O[C@@H](c2ccccc2)[C@@H]1NC1CCCCC1', 'normalized growth', 0.843),
  ('CC(C)(C)c1csc(NNC(=O)c2ccc(Cl)cc2)n1', 'normalized growth', 0.795),
  ('Cc1cc(C(=O)O/N=C(/N)CSc2ncccc2C(F)(F)F)no1', 'normalized growth', 1.01),
  ('COc1ccc(C2CC(c3ccccc3)=Nc3ccccc3S2)cc1OC (stereo unspecified)', 'normalized growth', 0.939),
  ('Fc1ccc(N/N=C\Cc2nnnn2-c2ccccc2)c(F)c1', 'normalized growth', 0.283),
  ('CC(C)c1ccc(-c2cc(=O)c3ccccc3o2)cc1', 'normalized growth', 0.721),
  ('N#CCC(=O)c1cccc(CSc2ccccc2Cl)c1', 'normalized growth', 0.243),
  ('C#Cc1cccc(N=Cc2cc(Cl)cc(Br)c2O)c1', 'normalized growth', 0.112),
  ('O=C1c2ccccc2O[C@@H](c2ccccc2)[C@@H]1NCc1ccccc1', 'normalized growth', 0.836),
  ('Cc1ccc(C(O)(c2ccccc2)c2ccccc2)c2ccccc12', 'normalized growth', 1),
  ('Cc1cc(C(=O)N(c2ccccc2)C(C)C2CC2)c(Cl)cc1Cl (stereo unspecified)', 'normalized growth', 0.943),
  ('O=C(CSCc1nc(-c2ccc(Cl)cc2)cs1)N/N=C\c1cccs1', 'normalized growth', 0.908),
  ('Cc1ccc(C(=O)O/N=C(/N)CSc2ncccc2C(F)(F)F)cc1', 'normalized growth', 0.995),
  ('CC(C)(C)c1cc2nc(C(F)(F)F)cc(NNC(=O)c3ccc(Cl)cc3)n2n1', 'normalized growth', 0.999),
  ('N/C(CSc1ccc(Cl)cc1)=N/OC(=O)c1ccc(C(F)(F)F)cc1', 'normalized growth', 0.774),
  ('O=C1Nc2ccccc2/C1=N/N=C\c1ccccc1Cl', 'normalized growth', 0.85),
  ('CCC(C)COC(=O)/C=C/c1ccc(N=Cc2ccc(OC)cc2)cc1 (stereo unspecified)', 'normalized growth', 0.743),
  ('CC(O)(CNCc1ccc(Cl)cc1)CSc1ccccc1Cl (stereo unspecified)', 'normalized growth', 0.862),
  ('COc1cc(NC(=S)Nc2ccccc2OC(F)(F)F)cc(C(F)(F)F)c1', 'normalized growth', 0.931),
  ('CCC(C)Cn1c(Sc2ncc([N+](=O)[O-])s2)n[nH]c1=O (stereo unspecified)', 'normalized growth', 0.649),
  ('N#Cc1c(Br)cnn1Cc1cc(C(F)(F)F)cc(C(F)(F)F)c1', 'normalized growth', 0.842),
  ('N/C(CSc1ncccc1C(F)(F)F)=N/OC(=O)Nc1cccc(Cl)c1', 'normalized growth', 0.724),
  ('Cc1ccc2c(c1)CCCN2CC(=O)N(c1ccccc1)C1CCCCC1', 'normalized growth', 0.928),
  ('O=C1Nc2ccccc2/C1=N/N=C\c1cc(Br)cc(Br)c1O', 'normalized growth', 0.233),
  ('O=C(NCc1cccs1)c1csc(Cc2c(Cl)cccc2Cl)n1', 'normalized growth', 0.985),
  ('Cc1csc2ncnc(N/N=C\c3ccccc3Cl)c12', 'normalized growth', 0.931),
  ('Clc1ccccc1N/N=C\Cc1nnnn1-c1ccccc1', 'normalized growth', 0.729),
  ('C/C(=N/Nc1nc(C(C)(C)C)cs1)c1ccc(Cl)c(Cl)c1', 'normalized growth', 0.844),
  ('CC(C)(C)c1csc(NC(=O)Nc2ccc(Cl)cc2)n1', 'normalized growth', 0.466);

---

Assay: chemical genetic growth profiling, strain panel (AID 1159580);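 further: tested at 20 µM; growth read once vehicle control cultures reached saturation at 30 °C; 1 = growth at the plate median or of vehicle wells; lower values mean less growth of the strain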
Details: S. cerevisiae deletion strains, growth OD, locus YOR290C, strain snf2
About 2,000 (36%) of roughly 5,500 compounds were called active. About 18% were inconclusive and are not listed. Cut-off read from the data, not from the text of the source: active = normalized growth mostly below about 0.91 (no sharp cut-off); inconclusive = no clear call, values can overlap the other calls; inactive = mostly above about 0.92. The list shows a part of the results.
Outcomes: t (active), f (inactive)

INSERT INTO measurements (molecule, labelvalue) VALUES
  ('CC1(C)O[C@@H]2CC3C4C[C@H](F)C5=CC(=O)C=C[C@]5(C)[C@@]4(F)[C@@H](O)C[C@]3(C)[C@]2(C(=O)CO)O1 (stereo partly specified)', 'f'),
  ('FC(F)(F)C(Cl)Br (stereo unspecified)', 'f'),
  ('O=C1c2c(O)ccc(O)c2C(=O)c2c(NCCNCCO)ccc(NCCNCCO)c21', 't'),
  ('ClC(Cl)=C(c1ccc(Cl)cc1)c1ccc(Cl)cc1', 'f'),
  ('CC(=O)O.CC(=O)O.[Cd]', 'f'),
  ('CCCCCCCCCCCCCCCC[n+]1ccccc1', 't');

---

Assay: chemical genetic growth profiling, strain panel (AID 1159580);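 further: tested at 20 µM; growth read once vehicle control cultures reached saturation at 30 °C; 1 = growth at the plate median or of vehicle wells; lower values mean less growth of the strain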
Conditions: S. cerevisiae deletion strains, growth OD, locus YJR066W, strain TOR1, stronger effect = lower value
In all, about 5,500 compounds went through this assay and about 2,000 (36%) were called active. About 18% were inconclusive and are not listed. The list shows a part of the results. Where a SMILES comes first, the peptide text is derived from it. Bridges are numbered along the chain shown (N, C = ends). [ ]: non-standard residue; d: D form. The star is where a group is joined. Heptanoyl(6-Me) = CC(C)CCCCC(=O)*; Dab = NCC[CH](N)C(=O)O
Label condition met when normalized growth is strictly below 0.9; otherwise label condition not met.

INSERT INTO assay_data (compound, labelvalue) VALUES
  ('CCCCCCCCCCCCCCCCCCCCCCO', 'condition not met'),
  ('CC(=O)Nc1ccc(OC(=O)c2ccccc2O)cc1', 'condition not met'),
  ('N#CCCCCOc1ccc2c(=O)cc(-c3ccccc3)oc2c1', 'condition not met'),
  ('CCN(CC)CCNC(=O)c1ccc(NC(C)=O)cc1', 'condition not met'),
  ('CCC(C)C1NC(=O)C(CCN)NC(=O)C(NC(=O)C(CCN)NC(=O)C(NC(=O)C(CCN)NC(=O)CCCCC(C)C)C(C)O)CCNC(=O)C(C(C)O)NC(=O)C(CCN)NC(=O)C(CCN)NC(=O)C(C(C)CC)NC1=O (stereo unspecified) ({Heptanoyl(6-Me)}-[Dab]T[Dab][Dab][Dab]II[Dab][Dab]T; lactam 4-C; configuration not given here)', 'condition not met'),
  ('CCCCCCCCCc1ccc(O)cc1', 'condition met'),
  ('NCCc1c[nH]c2ccc(O)cc12', 'condition not met'),
  ('CCCCCCCCCCCCCCCC[n+]1ccccc1', 'condition met'),
  ('C[C@@H]1CC[C@@]2(OC1)OC1C(O)C3C4CC[C@H]5C[C@H](O[C@@H]6O[C@H](CO)[C@H](O[C@@H]7O[C@H](CO)[C@@H](O)[C@H](O[C@@H]8OC[C@@H](O)[C@H](O)[C@H]8O)[C@H]7O[C@@H]7O[C@H](CO)[C@H](O)[C@H](O[C@@H]8O[C@H](CO)[C@@H](O)[C@H](O)[C@H]8O)[C@H]7O)[C@H](O)[C@H]6O)[C@H](O)C[C@]5(C)C4CC[C@]3(C)C1[C@@H]2C (stereo partly specified)', 'condition met'),
  ('CCCCCCc1ccc(O)cc1O', 'condition met'),
  ('O=C1CCc2ccc(OCCCCN3CCN(c4cccc(Cl)c4Cl)CC3)cc2N1', 'condition not met'),
  ('CC(=O)O[C@H]1C[C@@H](O)C(C)(C)C2C[C@@H](OC(C)=O)[C@]3(C)C(CC[C@@]4(C)[C@H](c5ccoc5)OC(=O)C5OC543)[C@]21C (stereo partly specified)', 'condition not met');
